meta.source: patent US7118895B2

# Tested on: Crude diglycosidase
# assay-overview: Examination of temperature in the conversion into isoflavone aglycons by diglycosidase using soybean materials
# Type: biochemical, Penicillium multicolor IAM7153
# Set-up: concentration or dose not given beside the values
# experimental-parameters: 30 °C; heat treatment of enzyme: no; 6 h
quantity-measured: Decomposition efficiency of glycitin family in roasted soy flour (%)

1. COc1cc2c(=O)c(-c3ccc(O)cc3)coc2cc1O
2. COc1cc2c(=O)c(-c3ccc(O)cc3)coc2cc1O[C@@H]1O[C@H](COC(C)=O)[C@@H](O)[C@H](O)[C@H]1O
Prompt: Please indicate which entry, 1 or 2 , has the lower recorded Decomposition efficiency of glycitin family in roasted soy flour value. Mark your selection by writing its label.
Response: 2
